Hello, the source for this data is the supplement of paper PMC6897291, in case you need it.

Tested on: RIVA
Test: growth inhibition by drug alone (1 - RLU/untreated control) (fraction); higher = stronger inhibition
Details: 100 nM; time (day): 4; 177Lu-lilotomab satetraxetan 0 ug/ml
# growth inhibition by drug alone >= -0.3 gives class 1, anything below gives class 0

For this compound, is measured growth inhibition by drug alone -0.3 or higher? COc1ccc(C2=N[C@@H](c3ccc(Cl)cc3)[C@@H](c3ccc(Cl)cc3)N2C(=O)N2CCNC(=O)C2)c(OC(C)C)c1 [Nutlin-3]
class 0

For this compound, is measured growth inhibition by drug alone -0.3 or higher? COc1ccc(CCN2CCN(CCCc3ccccc3)CC2)cc1OC
class 0

For this compound, is measured growth inhibition by drug alone -0.3 or higher? N#CC(c1ccnc(NCCc2cccnc2)n1)c1nc2ccccc2s1 (stereo not given) [JNK Inhibitor V]
class 0

Others:
For this compound, is measured growth inhibition by drug alone -0.3 or higher? O=c1cc(N2CCOCC2)oc2c(-c3ccccc3)cccc12
class 1
